Documented BI across a set of molecules
Tested on: 266 human PDZ domains (PDZome)
Assay: Holdup assay (chromatographic retention, PDZome-binding profile, BI)
Set-up: key: binding intensity: 0.00 = no binding, 1.00 = maximal binding
Conditions: PDZ domain PDZD2-3
*1 amine or outer side, *2 acyl side, *3 side chain or, on linkers, in order; H or OH if unused. Where a SMILES comes first, the peptide text is derived from it. The star is where a group is joined. X1 = O=C(CCCC[C@@H]1SC[C@@H]2NC(=O)N[C@@H]21)NCCCOCCOCCOCCCN*; Suc = O=C(CCC(=O)[*:2])[*:1]

Reference set, count: 3
CC[C@H](C)[C@H](NC(=O)[C@H](CCC(N)=O)NC(=O)[C@@H](NC(=O)[C@H](Cc1c[nH]cn1)NC(=O)[C@H](CCC(N)=O)NC(=O)[C@H](CC(=O)O)NC(=O)[C@H](CCC(=O)O)NC(=O)[C@H](CC(=O)O)NC(=O)CCC(=O)NCCCOCCOCCOCCCNC(=O)CCCC[C@@H]1SC[C@@H]2NC(=O)N[C@@H]21)[C@@H](C)O)C(=O)N[C@H](C(=O)N[C@@H](CCCCNC(C)=O)C(=O)N[C@H](C(=O)O)C(C)C)[C@@H](C)O :: 0.017
CC[C@H](C)[C@H](NC(=O)[C@H](CCC(N)=O)NC(=O)[C@@H](NC(=O)[C@H](Cc1c[nH]cn1)NC(=O)[C@H](CCC(N)=O)NC(=O)[C@H](CC(=O)O)NC(=O)[C@H](CCC(=O)O)NC(=O)[C@H](CC(=O)O)NC(=O)CCC(=O)NCCCOCCOCCOCCCNC(=O)CCCC[C@@H]1SC[C@@H]2NC(=O)N[C@@H]21)[C@@H](C)O)C(=O)N[C@H](C(=O)N[C@@H](CCCNC(=N)N)C(=O)N[C@H](C(=O)O)C(C)C)[C@@H](C)O [PTEN_KR] ({X1-Suc}-DEDQHTQITRV-OH) :: -0.096
CC[C@H](C)[C@H](NC(=O)[C@H](CCC(N)=O)NC(=O)[C@@H](NC(=O)[C@H](Cc1c[nH]cn1)NC(=O)[C@H](CCC(N)=O)NC(=O)[C@H](CC(=O)O)NC(=O)[C@H](CCC(=O)O)NC(=O)[C@H](CC(=O)O)NC(=O)[C@H](Cc1ccccc1)NC(=O)[C@@H]1CCCN1C(=O)CCC(=O)NCCCOCCOCCOCCCNC(=O)CCCC[C@@H]1SC[C@@H]2NC(=O)N[C@@H]21)[C@@H](C)O)C(=O)N[C@H](C(=O)N[C@@H](CCCCN)C(=O)N[C@H](C(=O)O)C(C)C)[C@@H](C)O [PTEN_13] ({X1-Suc}-PFDEDQHTQITKV-OH) :: -0.045

Please examine the following record next.
Form field: reported BI of CC[C@H](C)[C@H](NC(=O)[C@H](CCC(N)=O)NC(=O)[C@@H](NC(=O)[C@H](Cc1c[nH]cn1)NC(=O)[C@H](CCC(N)=O)NC(=O)[C@H](CC(=O)O)NC(=O)[C@H](CCC(=O)O)NC(=O)[C@H](CC(=O)O)NC(=O)CCC(=O)NCCCOCCOCCOCCCNC(=O)CCCC[C@@H]1SC[C@@H]2NC(=O)N[C@@H]21)[C@@H](C)O)C(=O)N[C@H](C(=O)N[C@@H](CCCCN)C(=O)N[C@H](C(=O)O)C(C)C)[C@@H](C)O
-0.072
